target: CLDN18.2 endogenously expressed on SNU620 gastric cancer cells (UniProt P56856); test: FACS Exp. 3, SNU620 cells
Reported MFI SNU620 (@30 ug/ml) is given for each of the following binders.

Answered cases to consult:
hz282-17 (antibody, V domains shown, humanized IgG; constant regions not specified) VH: QVQLQESGPGLVKPSETLSLTCTVSGFSLTSYNVYWIRQPPGKGLEWIGVIWNTGATRYNSALKSRVTISVDTSKNQFSLKLSSVTAADTAVYYCARDSAMPAIPFAYWGQGTLVTVSS VL: DIVMTQSPSSLSASVGDRVTINCKSSQSLFGSVRQKNYLAWYQQKPGKSPKLLIYLASTRESGVPDRFSGSGSGTDFTLTISSLQPEDFAKYYCQQYYDIPWTFGGGTKVEIK    176 MFI
hz282-13 (antibody, V domains shown, humanized IgG; constant regions not specified) VH: QVQLQESGPGLVKPSETLSLTCTVSGFSLTSYNVYWIRQPPGKGLEWIGVIWNTGATRYNSALKSRVTISVDTSKNQFSLKLSSVTAADTAVYYCARDSAMPAIPFAYWGQGTLVTVSS VL: DIQMTQSPSSLSASVGDRVTITCKSSQSLFGSVRQKNYLAWYQQKPGKSPKLLIYLASTRESGVPDRFSGSGSGTDFTLTISSLQPEDFAKYYCQQYYDIPWTFGGGTKVEIK    144 MFI

Query hz282-1 (antibody, V domains shown, humanized IgG; constant regions not specified; also called hz282-l) VH: QVQLQESGPGLVKPSETLSLTCTVSGFSLTSYNVYWIRQPPGKGLEWIGVIWNTGATRYNSALKSRVTISVDTSKNQFSLKLSSVTAADTAVYYCARDSAMPAIPFAYWGQGTLVTVSS VL: DIVMTQSPDSLAVSLGERATINCKSSQSLFGSVRQKNYLAWYQQKPGQPPKLLIYLASTRESGVPDRFSGSGSGTDFTLTISSLQAEDVAVYYCQQYYDIPWTFGGGTKVEIK yields MFI SNU620 (@30 ug/ml) of 69.6 MFI
